System: TK-10 renal
MEASUREMENT NOTES: NCI-60 one-dose screen, 48 h (100 = growth as untreated, 0 = no growth, -100 = all killed)
STUDY CONDITIONS: 10 µM unless noted
About 83,000 compounds went through this panel and 20% of them were active in at least one assay; those are over-represented in the sample as a whole.
Please respond with reported growth for every item in the list.
Answers are plain numbers, in %.

Illustrative cases are given below, each with its answer.
Cc1ccc(-c2nc(SCC(=O)Nc3nc(-c4ccc(Cl)cc4)cs3)[nH]c(=O)c2C#N)cc1 ... 103
COc1ccc(/C=C(/C#N)n2nnc3cccc(F)c32)cc1 ... 46.5
O=C(O)c1cn(C2CC2)c2cc(N3CCN(C(=O)Nc4nc(-c5ccccc5)cs4)CC3)c(F)cc2c1=O ... 26.3
Cc1ccc(C(=O)NN2C(=O)CSC2c2ccc(Cl)cc2)cn1 (stereo not given) ... 128

Parameter requested: growth. Apply to each item below.
1. COc1ccc2nc(NCCCNCCO)c3sc4ccc(F)cc4c(=O)c3c2c1
2. Cc1c(C(=O)NCCN2CCOCC2)cn2ncnc(Oc3ccc(NC(=O)Nc4ccc(Cl)c(C(F)(F)F)c4)cc3)c12
3. c1cc(-c2nnc(SSc3ncnc4nc[nH]c34)o2)ccn1
4. N#Cc1c(-c2ccc(Cl)cc2)nc2c(c(-c3ccccc3)nn2-c2ccccc2)c1-c1ccc(O)cc1

Result string:
1: 69.3; 2: 32.2; 3: 17; 4: 17.2

Parameter requested: growth. Apply to each item below.
1. COc1cc(/C=C2\C(=O)Nc3ccc(Br)cc32)cc(OC)c1OC
2. O=c1c2cccc(Cl)c2sc2c(NCCCNCCO)nc3ccccc3c12
3. CCCCCCCNC(=O)CCCNc1ncnc2c1ncn2-c1cccc(C(C)O)c1 (stereo not given)
4. N#CC1=C(N)Oc2c(sc3c(Br)cccc23)C1c1ccc([N+](=O)[O-])cc1 (stereo not given)
5. CC(C)C(=O)Nc1ccc(-c2nc(-c3cccc(OCCN4CCOCC4)c3)c(-c3ccnc(Br)c3)[nH]2)cc1
6. O=C(Cc1ccc2c(c1)OCCO2)Nc1nc2ccc(F)cc2s1

Result string:
[82.5, 39.1, 97.5, 71.9, 85.3, 117]

Parameter requested: growth. Apply to each item below.
1. Cc1nc2ccccc2c(/C=C/c2ccc(Cl)cc2)c1C(=O)/C=C/c1cccs1
2. CN1CCN(Cc2ccc(NC(=O)c3ccc(C(C)(C)C)c(C#Cc4cnc5cccnn45)c3)cc2C(F)(F)F)CC1
3. Cc1cc(-c2cc(C)c(N)cc2C)c(C)cc1N
4. CCOC(=O)CCN(C(=O)Nc1ccccc1)C1CCCCC1
5. COc1ccc2cc(C(C)C(=O)Nc3ccc(-c4n[nH]c(=S)n4C4CCCCC4)cc3)ccc2c1 (stereo not given)
6. COC(=O)Nc1ccc(-c2nc(-c3cccc(OC)c3)c(-c3ccnc(Br)c3)[nH]2)cc1

Result string:
[125, -93.8, 101, 120, 95.9, 77.9]

Provenance of the data: PubChem BioAssay (NCI)
